System: MS2 coat protein
Protocol Description: apparent KD of MS2 coat protein; designed switch direction (-1 OFF switch, 1 ON switch): -1; higher = weaker reporter binding
Experimental Parameters: input ligand: none
Endpoint: apparent KD of MS2 coat protein (nM)
Unit nM implied. Number only.

* ACAAGCAGAGAGUAAAUGGACAUGAGGAUCACCCAUGUGAGUCCAAGGAGAUAAGAUAUAUUAUUGGCUCGUCUUAU [AK-miRNA-r3-20] (Eterna round: R97, puzzle: Sensor, turn-off variant 1) | 104
* AGCGUGGAGACAGGAUAUGAGAAUAGAUAGAACUCAGAAGGGUCACAUGAGGAUCACCCAUGUAAAGUCUUGAGGCUGCGUGGU [Prohibition 7 - Jieux - Exclusion NG 1] (Eterna round: R96, puzzle: Exclusion NG 1) | 109

Kindly indicate its recorded apparent KD of MS2 coat protein. Item: UCUGCAACGCAAGGAUAUCUUAGAGUUGAAGAAAGAGAAGGUGCAGGUGAUAACAUGCCCGUAACAUGAGGAUCACCCAUGUAA [Eternabot solution 48] (Eterna round: R96, puzzle: Exclusion NG 1)
79.3

Kindly indicate its recorded apparent KD of MS2 coat protein. Item: ACAAGCUCUGUGGGUGGUGACAUGAGGAUCACCCAUGUUUUGCUCGUCUUGUCGGCCGGCCGGCGCCCGGCCGGCCG [-39.6, -68.5, A 12%] (Eterna round: R97, puzzle: Sensor, turn-off variant 1)
727

Kindly indicate its recorded apparent KD of MS2 coat protein. Item: GCUGGACAAGGAUAUACAUGAGGAUCACCCAUGUGAUCAGCAGUCCUCGGACUGCAAUGUAGAAGGUGUCCAGC [E3/1-C2] (Eterna round: R97, puzzle: Exclusion 3)
198

Kindly indicate its recorded apparent KD of MS2 coat protein. Item: AACACGGCAGGAUAUACUUGAGGAUCACCCAAGUUGUUCGCAACAUAAAAUAACUCUUGUAGAAGGGCCAAAAG [Isorbi] (Eterna round: R97, puzzle: Exclusion 3)
33.6

###

Tested on: MS2 coat protein
Protocol Description: apparent KD of MS2 coat protein, switch OFF state (with FMN for OFF switches, without FMN for ON switches); designed switch direction (-1 OFF switch, 1 ON switch): 1; higher = weaker reporter binding
Experimental Parameters: FMN input: 0 or 200 uM; Eterna round: R93 (includes R88 designs)
# cutoff 0.05 µM applies to apparent KD of MS2 coat protein; >= gives 1, < gives 0

Entry CAUCAUGCGCCUAAGGAUAUGUCUCACAAGACAUGAGGAUCACCCAUGUAGAAUAAAUAAACGAUGCAGAAGGUGGAGCGCAUGA [Cexeri] : is its apparent KD of MS2 coat protein no less than 0.05 µM?
1

Entry AAUAAUUAUACGAAGGAUAUCGGUAAUUAGACAUGAGGAUCACCCAUGUUAUAUGGUUAAAUAUUCGAGAAGGUCGAGGGUGAAA [JR_SS002_Sub505] : is its apparent KD of MS2 coat protein no less than 0.05 µM?
0

Entry GAGAAACAUGAGGAUCACCCAUGUAGAAAUAUGGGAGGAUAUACAAAGACGAAAGUCAAAGUAGAAGGCCUAGAAG [77%, Mat - Mod of Eli - With 2 more G's] : is its apparent KD of MS2 coat protein no less than 0.05 µM?
1

Entry AAUCCAAAUAGUUAGGAUAUGGGAAUUAAGACAUGAGGAUCACCCAUGUCAUUAAAACAAGUUAACCAGAAGGGACAGGGUGAAA [JR_SS002_Sub208] : is its apparent KD of MS2 coat protein no less than 0.05 µM?
0

Entry UGUUCGAGUAGUGAGGAUAUUCAUGGGCCCACAUGAGGAUCACCCAUGUAAAGGACCGGGCCGAAGGAGAAGGCGCGUAAAAUUA [Esenan] : is its apparent KD of MS2 coat protein no less than 0.05 µM?
1

Entry CAUCAUGCGCCUAAGGAUAUGUCUCACAAGACAUGAGGAUCACCCAUGUAGAAUAAAUAAAUGAUGCAGAAGGUGGAGCGCAUAC [Beusesce] : is its apparent KD of MS2 coat protein no less than 0.05 µM?
1
